# Study Target: T1, human LAG-3 on cells (HEK293-hLAG-3 stable cell line) (human, UniProt P18627 23-525)
# T1 sequence: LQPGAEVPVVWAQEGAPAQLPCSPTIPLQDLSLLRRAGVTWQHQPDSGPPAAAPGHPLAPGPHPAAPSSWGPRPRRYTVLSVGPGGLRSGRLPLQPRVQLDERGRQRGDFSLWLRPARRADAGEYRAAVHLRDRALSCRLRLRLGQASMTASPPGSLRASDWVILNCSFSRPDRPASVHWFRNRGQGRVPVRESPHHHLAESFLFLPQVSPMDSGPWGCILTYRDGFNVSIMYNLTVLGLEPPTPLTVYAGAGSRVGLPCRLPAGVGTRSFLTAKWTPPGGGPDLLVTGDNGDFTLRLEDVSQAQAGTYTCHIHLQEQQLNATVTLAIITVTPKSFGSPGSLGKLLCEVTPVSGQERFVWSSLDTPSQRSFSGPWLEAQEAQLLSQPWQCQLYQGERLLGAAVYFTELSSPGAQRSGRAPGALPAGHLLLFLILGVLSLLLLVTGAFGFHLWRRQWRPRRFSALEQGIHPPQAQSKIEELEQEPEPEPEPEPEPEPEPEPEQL
# Assay Notes: cell-based or functional assay
Readout Type: IL-2 production, SEB-dependent PBMC stimulation test, 0.08 ug/ml, N = 2 (pg/mL)
Respond with the bare value in pg/mL.

Query block: I would be grateful if you could share the reported IL-2 production, SEB-dependent PBMC stimulation test, 0.08 ug/ml, N = 2 for 409D4E10 mouse-human chimeric antibody (antibody, V domains shown, also called mAb112-409D4E10) VH: QVQLQQSGAELVRPGASVTLSCKASGNTFTDYEMHWVKQTPVHGLEWIGATDPETDNTAYNQKFKGKAILTTDKSSSTAYMELRSLTSEDSAVYYCITSGWNDWGQGTSLTVSS VL: DIKMTQSPSSMYASLGERVTITCKASQDINSYLSWFQQKPGKSPKTLIYRANRLLDGVPSRFSGSGSGQDYSLTISSLEYEDMGIYYCLQYNEFPYTFGGGTKLEIK .
Result block: 1420

Query block: Field entry: 405B8H3 mouse-human chimeric antibody (antibody, V domains shown, also called mAb103-405B8H3) VH: QVQLQQSGAELVRPGASVTLSCKASGYTFTDYEMHWVKQTPVHGLEWIGATDPETGNSAYNQKFKGKAIMTADKSSSTAYMELRSLTSEDSAVYYCISTGWNDWGQGTSLTVSS VL: DIKMTQSPSSMYASLGERVTITCKASQDINSYLSWFQQKPGKSPKTLIYRADRLLDGVPSRFSGSGSGQDYSLTISSLEYGDMGIYYCLQYDEFPYTFGGGTKLEIK
Result block: 1840
